The origin of these recorded values is the RNAGym collection of RNA variant scans (doi:10.7554/elife.80360).

B1: HDV Ribozyme (parent)
chain: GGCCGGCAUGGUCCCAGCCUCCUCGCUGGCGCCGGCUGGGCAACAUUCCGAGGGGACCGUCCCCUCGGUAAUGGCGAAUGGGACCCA

variants of: B1; test: self-cleavage, relative activity (ratio to wild type); higher = more cleavage; co-transcriptional
Output True for self-cleavage not less than 0.7; output False otherwise.

Change | Category
G6A C61U | True
U23C C85U | True
C13A G31C | False
G54A G81U | False
A16U A71C | True
G55U A70G | True
G10A C26A | True
G5U G52A | False
C26A A71C | True
